- System: Pfa1 cells
- EXPERIMENT: Inhibition of non-apoptotic cell death after tamoxifen-induced GPx4 knockout in a recombinant cell line (Example B.4)
- Type: cell-based
- EXPERIMENTAL CONTEXT: Mus musculus, read-out: Pfa1/TAM IC50
pIC50: −log10 of the molar value.
Quick reference for pIC50 among some molecules

Worked set:
MOLECULE	OBSERVABLE	RESULT
c1ccc(C(CNC2=Nc3ccccc3NC23CCCCC3)c2ccccc2)cc1 [C-229]	pIC50	> 6.70
Cc1cc2c(cc1C)NC1(CCNCC1)C(NCc1cccc(F)c1)=N2 [N-257]	pIC50	> 7.00
Clc1cccc(CNC2=Nc3cc4c(cc3NC23CCCCC3)OCCO4)c1 [C-227]	pIC50	> 7.30
Clc1cc2c(cc1Cl)NC1(CCCNCC1)C(NCc1ccccc1)=N2 (stereo not shown) [N-236]	pIC50	> 7.00
Cc1cc(C)cc(CNC2=Nc3ccccc3NC23CCSCC3)c1 [O/S-357]	pIC50	> 6.30
c1ccc(CCCCNC2=Nc3ccccc3NC23CCNCC3)cc1 [N-225]	pIC50	> 7.30

pIC50 for CC(=O)NC1CCC2(CC1)Nc1ccccc1N=C2NCc1ccccc1 (stereo not shown) [C-249] is > 5.30

Form field pIC50, entry c1ccc(CCCCNC2=Nc3ccccc3NC23CCOCC3)cc1 [O/S-358] : > 5.70

Summary for this molecule, Cc1ccccc1CNC1=Nc2ccccc2NC12CCNCC2 [N-10] : pIC50 is > 7.00

The molecule c1ccc(CCNC2=Nc3ccccc3NC23CCOCC3)cc1 [O/S-347] showed pIC50 equal to > 5.30

----------
pIC50 values by entry
- Tested on: Pfa1 cells
- EXPERIMENT: Inhibition of non-apoptotic cell death after tamoxifen-induced GPx4 knockout in a recombinant cell line (Example B.4)
- Assay type: cell-based
- EXPERIMENTAL CONTEXT: Mus musculus, read-out: Pfa1/TAM IC50
pIC50: −log10 of the molar value.

COMPOUND	OBSERVABLE	RESULT
Fc1cccc(F)c1CNC1=Nc2ccccc2NC12CCNCC2	pIC50	> 7.30
Clc1ccc(CNC2=Nc3ccccc3NC23CCNCC3)cc1Cl	pIC50	> 8.00
O=S1(=O)CCC2(CC1)Nc1ccccc1N=C2NCc1ccccc1	pIC50	> 5.70
CC1CN(C)CCC12Nc1ccccc1N=C2NCc1ccccc1 (stereo not drawn)	pIC50	> 6.30
CC(NC1=Nc2ccccc2NC12CCSCC2)c1ccccc1 (stereo not drawn)	pIC50	> 6.00

The recorded pIC50 for "Fc1cccc(CNC2=Nc3ccccc3NC23CCCCC3)c1" is > 6.30

The measured pIC50 associated with "Clc1ccccc1CNC1=Nc2ccccc2NC12CCSCC2" reads > 6.30

The compound listed as "Clc1ccc(CNC2=Nc3ccccc3NC23CCNCC3)c(Cl)c1" has a reported pIC50 of > 8.00

Lookup result for "Cc1cccc(CNC2=Nc3ccccc3NC23CCOCC3)c1" ; measured pIC50: > 5.70

Please fill in: pIC50 reported for "Fc1cc2c(cc1F)NC1(CCCCC1)C(NCc1ccccc1)=N2" = > 6.30

Input "Cc1cc2c(cc1C)NC1(CCCCCC1)C(NCc1cccc(Cl)c1)=N2" . Output pIC50: > 6.70

Record summary for "Cc1ccc(CNC2=Nc3ccccc3NC23CCCCC3)cc1" : reported pIC50 = > 6.30
